- ASSAY DETAILS: BSK_4H_Eotaxin3: BioMAP Diversity Plus: 4H Assay for Eotaxin 3 Biomarker Activity (AID 2283000)
- ASSAY CONTEXT: primary human endothelial cells (HUVEC); actives raise or lower the signal
Calls of active or inactive are those of the source. How the source made its calls: active means hit-call score of the fitted dose curve at least 0.9, where 1 is the maximum; inactive means score below 0.9.
Mark one answer only. Choices: Y (active), N (inactive)

# example entries with known answers
Query :: What is the recorded call for this molecule in the test? CSCCC=O
Result :: N

Query :: Hey, what did the test say about CCCCOC(=O)CCCCCCCC(=O)OCCCC ?
Result :: N

***
Query :: Test call for this molecule, please: c1ccc(CCc2ccccc2)cc1
Result :: Y

Query :: What outcome does the record of this test show for COc1ccc(OC)c(N=Nc2c(O)ccc3ccccc23)c1 ?
Result :: Y

Query :: Record lookup: outcome of this test for CCCCCCCCCCCCCCCC(=O)OC/C=C(C)/C=C/C=C(C)/C=C/C1=C(C)CCCC1(C)C ?
Result :: N

###

- Read-out: Tissue Factor, F3 (gene 2152)
- ASSAY DETAILS: BSK_CASM3C_TissueFactor: BioMAP Diversity Plus: CASM3C Assay for Tissue Factor Biomarker Activity (AID 2283052);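 further: cell surface tissue factor protein level read by ELISA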
- ASSAY CONTEXT: primary human coronary artery smooth muscle cells; actives raise or lower the signal
Calls of active or inactive are those of the source. Rule for the calls: active = hit-call score of the fitted dose curve at least 0.9, where 1 is the maximum; inactive = score below 0.9.
Outcomes you can answer with include only these: active, inactive

Query :: Dear colleague, could you share the recorded outcome for C=C(C)C(=O)OCCOCCOCCOCCOC(=O)C(=C)C when you have a moment?
Result :: inactive

Query :: Hey, what did the test say about CC(C=O)Cc1ccc(C(C)(C)C)cc1 (stereo not drawn) ?
Result :: active

Query :: Field: outcome | Entry: CS(=O)(=O)c1ccc(C2=C(c3ccccc3)C(=O)OC2)cc1
Result :: inactive

Query :: I would be grateful if you could indicate the recorded call for C1=CC2C3C=CC(C3)C2C1 (stereo not drawn) .
Result :: inactive

Query :: Recorded call for CC(C)(C)CC(C)(C)c1ccc(OCCOCC[N+](C)(C)Cc2ccccc2)cc1 ?
Result :: active

Query :: Fill in: this test's call for CC=Cc1ccc(OCC)c(O)c1 is ___
Result :: inactive

Query :: Could you check what this test reported for CCCCCCC(CO)CCCC (stereo not drawn) ?
Result :: inactive

Query :: Please state the recorded outcome for this compound: CC1(C)C2=CCCC(C)(C)[C@]23CC[C@H]1C3
Result :: active

More entries:
Query :: What is the recorded call for this compound in the test? O=CN1CCOCC1
Result :: inactive

Query :: Assay result, entry CCCCCC(C=O)=Cc1ccccc1 — outcome?
Result :: active

Query :: What outcome does the record of this test show for CC(=O)C1(C)CC2=C(CCCC2(C)C)CC1C (stereo not drawn) ?
Result :: active

Query :: Recorded call for CC(CN=Cc1ccccc1O)N=Cc1ccccc1O (stereo not drawn) ?
Result :: inactive

Query :: For CCCCOC(=O)CCCCCCCC(=O)OCCCC , which call appears in the assay record?
Result :: inactive

###

- MEASURED TARGET: Cellular tumor antigen p53 (Homo sapiens) (UniProt P04637)
- Sequence (P04637 whole entry, looked up): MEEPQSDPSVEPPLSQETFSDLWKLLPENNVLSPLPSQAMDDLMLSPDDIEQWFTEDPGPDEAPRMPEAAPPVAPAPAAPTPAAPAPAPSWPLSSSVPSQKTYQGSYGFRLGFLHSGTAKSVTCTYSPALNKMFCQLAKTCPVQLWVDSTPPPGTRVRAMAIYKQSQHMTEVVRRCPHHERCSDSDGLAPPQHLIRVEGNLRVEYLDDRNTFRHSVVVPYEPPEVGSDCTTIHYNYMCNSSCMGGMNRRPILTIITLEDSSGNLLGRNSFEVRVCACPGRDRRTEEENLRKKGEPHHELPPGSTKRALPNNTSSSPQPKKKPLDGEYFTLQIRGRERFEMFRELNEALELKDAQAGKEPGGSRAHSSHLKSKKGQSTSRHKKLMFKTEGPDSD
- ASSAY DETAILS: ATG_p53_CIS: Attagene CIS-FACTORIAL HepG2 Assay for human p53 Transcription Factor (AID 2282994)
- ASSAY CONTEXT: HepG2 p53 cis-element reporter, Attagene mRNA; actives raise or lower the signal
Calls of active or inactive are those of the source. How the source made its calls: active means hit-call score of the fitted dose curve at least 0.9, where 1 is the maximum; inactive means score below 0.9.
// classify into active, inactive

Query :: Record request — test call for [Cl][Au]([Cl])[Cl]
Result :: inactive

More entries:
Query :: For CCN(CCN)c1cccc(C)c1 , which call appears in the assay record?
Result :: inactive

Query :: GET /call?item= CC1=CC[C@@]23C[C@@H]1C(C)(C)[C@@H]2CC[C@H]3C returns the recorded outcome of this test.
Result :: inactive

Query :: What call does the record list for COC(=O)c1ccc(C)cc1C1=NC(C)(C(C)C)C(=O)N1 (centres undefined) (tested in a mixture with another compound) ?
Result :: inactive

Query :: Assay result, entry CCOC(=O)C1OC1c1ccccc1 (centres undefined) — outcome?
Result :: active

Query :: # lookup: test call for CCC1CCCCC1
Result :: inactive

Query :: Hi, sorry to bother you, what did the test record for C#CC(C)N(C)C(=O)Nc1ccc(Cl)cc1 (centres undefined) ?
Result :: inactive

Query :: Recorded test outcome, item CCOc1ccc(N=Nc2ccc(C=Cc3ccc(N=Nc4ccc(OCC)cc4)cc3S(=O)(=O)O)c(S(=O)(=O)O)c2)cc1
Result :: inactive

Query :: Assay result, entry COCCOC(=O)c1ccccc1C(=O)OCCOC — outcome?
Result :: inactive

Query :: // param item: CC(CN=Cc1ccccc1O)N=Cc1ccccc1O (centres undefined) ; yields the recorded call
Result :: inactive
